# Tested target: BTK-1h (Homo sapiens, UniProt Q06187)
# Construct: The BTK kinase domain was diluted to 2 μM in the buffer, and 2 μM 1h was added; made in house
# Sequence (Q06187 402-655): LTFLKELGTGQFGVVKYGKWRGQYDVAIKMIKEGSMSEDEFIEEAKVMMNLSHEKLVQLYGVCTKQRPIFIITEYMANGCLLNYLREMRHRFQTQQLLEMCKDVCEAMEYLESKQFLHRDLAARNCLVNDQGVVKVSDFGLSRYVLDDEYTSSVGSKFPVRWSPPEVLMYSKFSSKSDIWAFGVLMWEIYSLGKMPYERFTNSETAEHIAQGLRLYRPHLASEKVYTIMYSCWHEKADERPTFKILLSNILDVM
# Assay overview: High-throughput screening with 1h-labeled BTK
# Type: binding
# Measurement parameters: Dataset S2A; 200 μM compound, BTK-1h, 32 °C, 10 min
Outcome measure: FI (650)/FI (620)

>>> endpoint_value("CC(C)(C)c1cc(/C=C(\\C#N)C(N)=S)cc(C(C)(C)C)c1O")
0.9335
>>> endpoint_value("CN1CCN(c2ccc(C(=O)Nc3n[nH]c4ccc(Cc5cc(F)cc(F)c5)cc34)c(NC3CCOCC3)c2)CC1")
0.9755
>>> endpoint_value("CN1CCN(Cc2ccc(Nc3ncc(Cl)c(Nc4ccccc4S(=O)(=O)N(C)C)n3)cc2)CC1")
1.221
>>> endpoint_value("Nc1ccc(O)cc1")
1.311
